assay details: Cytotoxicity against human SH-SY5Y cells assessed as cell viability at 3.25 uM after 24 hrs by MTT assay
Format: cell-based
condition description: read-out: Activity
metric: viability at 24 h, 3.25 µM (%)
Answers are plain numbers, in %.

// sample Cc1c(C)c2ccc(OCCN3CCN(CCCNc4c5c(nc6ccccc46)CCCC5)CC3)cc2oc1=O , its viability at 24 h, 3.25 µM was 91.1

---

assay details: Cytotoxicity against human SH-SY5Y cells assessed as cell viability at […] after 24 hrs by MTT assay
Format: cell-based
condition description: read-out: Activity
metric: viability at 24 h, […] (%)
Answers are plain numbers, in %.

For this compound ( Cc1c(C)c2ccc(OCCN3CCN(CCCNc4c5c(nc6ccccc46)CCCC5)CC3)cc2oc1=O ), measured viability at 24 h, […] is 85.7

---

experimental target: UniProtKB P81908
Sequence (P81908 whole entry): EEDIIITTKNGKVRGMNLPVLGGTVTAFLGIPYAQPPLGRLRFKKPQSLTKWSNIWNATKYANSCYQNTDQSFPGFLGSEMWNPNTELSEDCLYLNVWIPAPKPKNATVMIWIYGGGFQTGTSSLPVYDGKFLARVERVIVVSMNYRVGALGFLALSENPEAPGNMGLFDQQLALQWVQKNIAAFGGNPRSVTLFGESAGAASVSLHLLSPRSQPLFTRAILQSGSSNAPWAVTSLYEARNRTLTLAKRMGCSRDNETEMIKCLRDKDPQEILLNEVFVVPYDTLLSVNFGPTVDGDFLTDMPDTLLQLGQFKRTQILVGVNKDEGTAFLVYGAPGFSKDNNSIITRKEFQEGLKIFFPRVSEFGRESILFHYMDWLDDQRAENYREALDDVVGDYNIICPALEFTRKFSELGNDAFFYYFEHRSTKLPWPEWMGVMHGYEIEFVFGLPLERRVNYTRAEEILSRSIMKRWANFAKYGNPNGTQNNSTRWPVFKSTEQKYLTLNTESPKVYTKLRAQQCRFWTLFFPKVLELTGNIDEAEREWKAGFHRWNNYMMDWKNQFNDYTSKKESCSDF
Answer each item with its documented IC50.
One number for each entry, in nM.

Below are worked cases with known answers.
>  <smiles notation>
O=c1ccc2ccc(OCCCCCCN3CCN(CCCNc4c5c(nc6ccccc46)CCCC5)CC3)cc2o1

>  <reported result>
38.5

$$$$
>  <smiles notation>
O=c1ccc2ccc(OCCN3CCN(CCNc4c5c(nc6ccccc46)CCCC5)CC3)cc2o1

>  <reported result>
43.4

$$$$
>  <smiles notation>
O=c1ccc2ccc(OCCCN3CCN(CCCNc4c5c(nc6ccccc46)CCCC5)CC3)cc2o1

>  <reported result>
31.6

$$$$

Value sought for every listed compound: IC50.
1. Nc1cc(=O)oc2cc(OCCN3CCN(CCCNc4c5c(nc6ccccc46)CCCC5)CC3)ccc12
2. O=c1ccc2ccc(OCCCCN3CCN(CCCNc4c5c(nc6ccccc46)CCCC5)CC3)cc2o1
3. O=c1cc(C(F)(F)F)c2ccc(OCCN3CCN(CCCNc4c5c(nc6ccccc46)CCCC5)CC3)cc2o1
4. O=c1cc(-c2ccccc2)c2ccc(OCCN3CCN(CCCNc4c5c(nc6ccccc46)CCCC5)CC3)cc2o1

Result:
[70.7, 23, 149, 216]

---

experimental target: Amine oxidase [flavin-containing] B (Homo sapiens)
Sequence (P27338 whole entry): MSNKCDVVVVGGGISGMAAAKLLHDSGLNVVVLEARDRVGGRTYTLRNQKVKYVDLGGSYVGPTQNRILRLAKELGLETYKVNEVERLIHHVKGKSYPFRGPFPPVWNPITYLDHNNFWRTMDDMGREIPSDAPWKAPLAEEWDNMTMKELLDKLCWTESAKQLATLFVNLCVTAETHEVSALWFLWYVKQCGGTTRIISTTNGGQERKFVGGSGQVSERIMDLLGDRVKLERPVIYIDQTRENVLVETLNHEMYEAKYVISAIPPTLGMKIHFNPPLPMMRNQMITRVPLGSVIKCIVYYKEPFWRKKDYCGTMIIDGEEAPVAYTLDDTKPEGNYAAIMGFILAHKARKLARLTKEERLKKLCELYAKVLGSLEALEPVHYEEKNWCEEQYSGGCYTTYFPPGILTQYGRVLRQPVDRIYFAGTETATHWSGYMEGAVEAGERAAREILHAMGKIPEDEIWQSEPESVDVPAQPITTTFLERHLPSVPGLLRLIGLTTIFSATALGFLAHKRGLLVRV
Please go through the items and note down their IC50.
Give bare numbers, in nM.

Reference set (4 entries):
>  <smiles notation>
CCOc1cc(=O)oc2cc(OCCN3CCN(CCCNc4c5c(nc6ccccc46)CCCC5)CC3)ccc12

>  <IC50 [nM]>
25700

$$$$
>  <smiles notation>
O=c1ccc2ccc(OCCCCN3CCN(CCNc4c5c(nc6ccccc46)CCCC5)CC3)cc2o1

>  <IC50 [nM]>
780

$$$$
>  <smiles notation>
O=c1oc2cc(OCCN3CCN(CCCNc4c5c(nc6ccccc46)CCCC5)CC3)ccc2c2c1CCCC2

>  <IC50 [nM]>
1520

$$$$
>  <smiles notation>
O=c1ccc2ccc(OCCCN3CCN(CCNc4c5c(nc6ccccc46)CCCC5)CC3)cc2o1

>  <IC50 [nM]>
2370

$$$$

Go through the items and report each one's IC50.
1. O=c1ccc2ccc(OCCCCCN3CCN(CCNc4c5c(nc6ccccc46)CCCC5)CC3)cc2o1
2. O=c1ccc2ccc(OCCCCN3CCN(CCCNc4c5c(nc6ccccc46)CCCC5)CC3)cc2o1
3. COc1cc(=O)oc2cc(OCCN3CCN(CCCNc4c5c(nc6ccccc46)CCCC5)CC3)ccc12
4. O=c1cc(C(F)(F)F)c2ccc(OCCN3CCN(CCCNc4c5c(nc6ccccc46)CCCC5)CC3)cc2o1
5. Cc1cc2ccc(OCCN3CCN(CCCNc4c5c(nc6ccccc46)CCCC5)CC3)cc2oc1=O

Result:
1: 1590; 2: 3450; 3: 5770; 4: 28800; 5: 540
